# System: hOX1R (Homo sapiens)
# Assay summary: FLIPR Ca2+ Flux Assay, hOX1R
# Protocol conditions: CHO cells expressing orexin-1 receptor; agonist 70 pM Ala-6,12 orexin-A
pIC50: −log10 of the molar value.
Parameter measured: pIC50

# Input smiles, Parameter measured, Number
measured = [
    ("COC(=O)c1c(SC)ccnc1O[C@@H]1CC[C@@H](C)N(C(=O)c2cc(F)ccc2-c2ncccn2)C1", "pIC50", 6.06),
    ("COC(=O)c1c(SC)ccnc1O[C@@H]1CC[C@@H](C)N(C(=O)c2ccc(F)cc2-c2ncccn2)C1", "pIC50", 6.05),
    ("COC(=O)c1c(C2CC2)ccnc1O[C@@H]1CC[C@@H](C)N(C(=O)c2ccccc2-n2nccn2)C1", "pIC50", 6.10),
    ("CCOC(=O)c1c(CC)ccnc1O[C@@H]1CC[C@@H](C)N(C(=O)c2ccccc2-n2nccn2)C1", "pIC50", 6.76),
    ("COC(=O)c1c(N2CCN(C)CC2)ccnc1O[C@@H]1CC[C@@H](C)N(C(=O)c2ccccc2-n2nccn2)C1", "pIC50", 5.00),
    ("COC(=O)c1c(SC)ccnc1O[C@@H]1CC[C@@H](C)N(C(=O)c2cccc(F)c2-c2ncccn2)C1", "pIC50", 5.99),
    ("COC(=O)c1c(C)ccnc1O[C@@H]1CC[C@@H](C)N(C(=O)c2ccccc2-n2nccn2)C1", "pIC50", 7.06),
    ("COC(=O)c1c(N2CCC2)ccnc1O[C@@H]1CC[C@@H](C)N(C(=O)c2ccccc2-n2nccn2)C1", "pIC50", 6.13),
    ("COC(=O)c1c(C2CCC2)ccnc1O[C@@H]1CC[C@@H](C)N(C(=O)c2ccccc2-n2nccn2)C1", "pIC50", 5.25),
    ("COC(=O)c1c(SC)ccnc1O[C@@H]1CC[C@@H](C)N(C(=O)c2ccccc2-c2ncccn2)C1", "pIC50", 6.26),
    ("CCOC(=O)c1c(C)ccnc1O[C@@H]1CC[C@@H](C)N(C(=O)c2ccccc2-n2nccn2)C1", "pIC50", 7.10),
    ("COC(=O)c1c(C(C)C)ccnc1O[C@@H]1CC[C@@H](C)N(C(=O)c2ccccc2-n2nccn2)C1", "pIC50", 7.10),
    ("COC(=O)c1c(C(C)(C)C)ccnc1O[C@@H]1CC[C@@H](C)N(C(=O)c2ccccc2-n2nccn2)C1", "pIC50", 5.69),
    ("COC(=O)c1c(SC)ccnc1O[C@@H]1CC[C@@H](C)N(C(=O)c2ccccc2-n2nccn2)C1", "pIC50", 6.21),
    ("COC(=O)c1c(O[C@@H]2CC[C@@H](C)N(C(=O)c3ccccc3-n3nccn3)C2)cccc1C(C)C", "pIC50", 5.84),
    ("COC(=O)c1c(C)cccc1O[C@@H]1CC[C@@H](C)N(C(=O)c2ccccc2-n2nccn2)C1", "pIC50", 5.71),
    ("CCc1ccnc(O[C@@H]2CC[C@@H](C)N(C(=O)c3ccccc3-n3nccn3)C2)c1C(=O)OC", "pIC50", 7.13),
]

From: patent US9765057B2
